Where these numbers come from: patent US11485734B2

- measured.on: human serotonin receptor 2C (5-HT2c) (Homo sapiens, UniProt P28335)
- Sequence (P28335 33-458): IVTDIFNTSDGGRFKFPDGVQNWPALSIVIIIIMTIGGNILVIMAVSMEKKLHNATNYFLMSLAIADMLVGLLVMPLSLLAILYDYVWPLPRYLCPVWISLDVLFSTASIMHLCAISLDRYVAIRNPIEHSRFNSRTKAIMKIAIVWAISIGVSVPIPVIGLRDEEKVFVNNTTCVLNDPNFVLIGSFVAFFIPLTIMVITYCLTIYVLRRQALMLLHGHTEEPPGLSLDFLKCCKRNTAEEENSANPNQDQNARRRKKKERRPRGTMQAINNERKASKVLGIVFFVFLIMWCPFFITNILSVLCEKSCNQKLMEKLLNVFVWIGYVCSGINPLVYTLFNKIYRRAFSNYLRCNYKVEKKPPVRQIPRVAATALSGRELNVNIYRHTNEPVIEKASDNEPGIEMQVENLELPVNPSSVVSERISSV
- protocol.notes: 2C agonist activity of selected compounds
- Type: cell-based
quantity: EC50 (nM)
Your answer should be a plain number; it is taken to be in nM.

A selection of reference data follows.
INSERT INTO measurements (molecule, val) VALUES
  ('Fc1ccc2[nH]c3c(c2c1)CCNC3c1cncnc1 (stereo not drawn) [MJO-01-31]', 10.1),
  ('Oc1ccc2[nH]c3c(c2c1)CCNC3c1ccccc1O (stereo not drawn) [MJO-01-34]', 85.9);

Asked: For the molecule shown here, Clc1ccc2[nH]c3c(c2c1)CCNC3CCc1ccccc1 (stereo not drawn) [MJO-01-46] , give the reported EC50.
Given back: 5.37
